assay-explanation: yeast display, Sf9 membrane polyspecificity reagent, FACS + sequencing; frameworks hold sequencing errors
observation-type: polyreactivity (PSR sort gate)

Answered examples (4):
[[record]]
sequence_record = "QVQLVESGVGLVHAGGSLRLSCAASGFTFKENAMGWYRQAPGKERELVAAISSTGGSTYYADSVKGRFTISRDIAKNTVYLQINRLKPEDTAVYYCAASTYWYDGDYWGQGTQVTVSS"
observation_type = "polyreactivity (PSR sort gate)"
experimental_result = "high polyreactivity"

[[record]]
sequence_record = "QVQLVESGGGLVQAGGSLRISCAASGYTFFNYAMGWSRQAPGKERELVAAITWSGGSRYYADSVKGRFTISRVNAKNTVYLQMNSLKPEDTAVYYCAADAITPRDPYVTEKLDYWGQGTQVTVSS"
observation_type = "polyreactivity (PSR sort gate)"
experimental_result = "low polyreactivity"

[[record]]
sequence_record = "QVQLVESGGGLVQAGGSLRLSCAASGRTSVIYAMGWYRQAPGKERELVASIRRGGSTSYADSVKGRFTISRDNAKNTVYLQMNSLKPEDTAVYYCAARKRSVYGTEYDYWGQGTQVTVSS"
observation_type = "polyreactivity (PSR sort gate)"
experimental_result = "high polyreactivity"

[[record]]
sequence_record = "QVQLVESGGGLVQAGGSLRLSCAASGRTFWVYAMGWYRQAPGKERELVASISWSVGSTYYADSVKGRFTISRDNAKNTVYLQMNSLKPEDTAVYYCAVDPATNVEGDYWGQGTQVTVSS"
observation_type = "polyreactivity (PSR sort gate)"
experimental_result = "low polyreactivity"


Lab book: polyreactivity (PSR sort gate) of QVQLVESGGGLVQAGGSLRLSCAASGRIFRRYAMGWYRQAPGKERELVAAITSGSSTNYADSVKGRFTISRDNAKNTVYLQMNSLKPEDTAVYYCNAKLRGYYYSRYNYWGQGTQVTVSS noted as high polyreactivity

====

assay-explanation: yeast display, Sf9 membrane polyspecificity reagent, FACS + sequencing; frameworks hold sequencing errors
observation-type: polyreactivity (PSR sort gate)

Answered examples (4):
[[record]]
sequence_record = "QVQLVESGGGLVQAGGSLRLSCAASGSILRRNTMGCYRQAPGKERELVAAINKTGGSTYYADSVKGRFTISRDNAKNTVYLQMNSLKPEDTAVYYCNRDKYYGTKYDYWGQGTQVTVSS"
experimental_result = "low polyreactivity"

[[record]]
sequence_record = "QDQLVESGGGLVQAGGSLRLSCAASGSTFNNNALGWYRQAPGKERELVAAISYTGGSTYYADSVKGRFTISRDNAKNSVYLHMNSLKPEDTAVYYCARRQARKFYYWGQGTQVTVSS"
experimental_result = "high polyreactivity"

[[record]]
sequence_record = "QVQLVESGGGLVQAGGSHRLSCAASGYIFGYNAMGWYRQAPGKEREFVAAIRFSGGSTYYADSVKGRFTISRDNAKNTVYLQMNSMKPEDTAVYYCAKRGYGHLIPIAYEYWGQGTQVTVSS"
experimental_result = "low polyreactivity"

[[record]]
sequence_record = "QVQLVESGGGLVQAGGSLRLSCAASGSTFQSNAMGWYRQAPGTEREMVATITRGGGTSYADSVKGRFTISRDNAKNTVYVQMNSLQPEDTAVYYCNARRQRYYTQGRFYYWGQGTQVTVSS"
experimental_result = "high polyreactivity"


Let us examine a further case.
Lab book: polyreactivity (PSR sort gate) of QVQLVESGGGLVQAGGSLRLSCAASGNIFAYNAMGWYRQAPGKERELVASIRYSGGSTYYADSVKGRFTISRDNAKNTVYLQMNSLKPEDTAVYYCAKRGYSSYRTYNYWGQGTQVTVSS noted as high polyreactivity
